test system: LOX IMVI; assay: NCI tumour cell line growth inhibition, 48 h
Active and inactive are the calls of the source. Rule as the data show it: active = GI50 up to about 1.1 µM and inactive = higher.
Each item that follows carries a reported GI50.

Value sought: GI50, system LOX IMVI, item CC(=O)OC(CCC1(C)OC1COc1ccc(CCNC(=O)c2ccccc2)cc1)C(C)(C)OC(C)=O (stereo unspecified) . Result: 2.18 µM (inactive)

More entries:
Value sought: GI50, system LOX IMVI, item Nc1ccn(C2CCC(CO)O2)c(=S)n1 (stereo unspecified) . Result: > 100 µM (inactive)

Value sought: GI50, system LOX IMVI, item CO/N=C\c1cc(O)c(O)c(/C=N/OC)c1 . Result: 41.3 µM (inactive)

Value sought: GI50, system LOX IMVI, item COc1ccc(-c2nc(SC)n(C3OC(COC(C)=O)C(OC(C)=O)C(OC(C)=O)C3OC(C)=O)c(=O)c2C#N)cc1 (stereo unspecified) . Result: 56.4 µM (inactive)

Value sought: GI50, system LOX IMVI, item CCCCc1c2c(nc3c1CCCC3=O)C(=O)CCC2 . Result: > 100 µM (inactive)

Value sought: GI50, system LOX IMVI, item CCCCCCCCCCNC(=S)OC . Result: 15.8 µM (inactive)

====

tested on: 786-0; experiment: NCI tumour cell line growth inhibition, 48 h
Calls of active or inactive are those of the source. Rule as the data show it: active = GI50 up to about 1.1 µM and inactive = higher.
Endpoint: GI50

Example compounds with recorded GI50:
Value of GI50 reported for the compound CC(=O)c1c(SCCN2CCCCCC2)n(-c2ccccc2)c(=S)n(-c2ccccc2)c1=O is 1.73 µM (inactive)

Value of GI50 reported for the compound CC[N+]1(C)CCC(O)(c2ccc(OC)cc2)C(C(=O)c2ccc(OC)cc2)C1 (configuration not stated) is 3.18 µM (inactive)

More entries:
Value of GI50 reported for the compound Cc1cc(C)c(C2[C@H]3C(=O)N(c4ccc(Cc5ccc(N6C(=O)[C@@H]7ON(c8ccccc8)C(c8c(C)cc(C)cc8C)[C@@H]7C6=O)cc5)cc4)C(=O)[C@H]3ON2c2ccccc2)c(C)c1 (some centres not stated) is > 100 µM (inactive)

Value of GI50 reported for the compound O=c1ccn([C@@H]2C[C@H](CO)C[S+]([O-])C2)c(=O)[nH]1 (some centres not stated) is > 100 µM (inactive)

Value of GI50 reported for the compound CC1CCN(CC(=O)N2c3ccccc3Sc3cc4ccccc4cc32)CC1 is > 100 µM (inactive)

Value of GI50 reported for the compound Cc1cccc(NC2=NC(=O)C(CC(=O)Nc3ccc(Cl)cc3C)S2)c1 (configuration not stated) is > 100 µM (inactive)

====

test system: UACC-62; experiment: NCI tumour cell line growth inhibition, 48 h
The source made the active and inactive calls. Rule as the data show it: active = GI50 up to about 1.1 µM and inactive = higher.
Endpoint: GI50

Example molecules with recorded GI50:
Value of GI50 reported for the molecule CC1=NN(c2ccccc2)C(=O)C1/N=N/c1ccc(S(N)(=O)=O)cc1 (centres undefined) is > 100 µM (inactive)

Value of GI50 reported for the molecule CCCCC1(C2c3ccccc3Oc3ccccc32)C(=O)N(c2ccccc2)N(c2ccccc2)C1=O is > 89.3 µM (inactive)

Value of GI50 reported for the molecule FC(F)(F)C1(C(F)(F)F)OC(Cl)(Cl)C(Cl)(Cl)O1 is > 10 µM (inactive)

Pending molecule:
Value of GI50 reported for the molecule COc1ccc(/C=C/C=C2C(=O)NC(=S)NC2=O)cc1 is 3.07 µM (inactive)
